experimental_target: EGFR (Homo sapiens, UniProt P00533)
Sequence (P00533 25-1210): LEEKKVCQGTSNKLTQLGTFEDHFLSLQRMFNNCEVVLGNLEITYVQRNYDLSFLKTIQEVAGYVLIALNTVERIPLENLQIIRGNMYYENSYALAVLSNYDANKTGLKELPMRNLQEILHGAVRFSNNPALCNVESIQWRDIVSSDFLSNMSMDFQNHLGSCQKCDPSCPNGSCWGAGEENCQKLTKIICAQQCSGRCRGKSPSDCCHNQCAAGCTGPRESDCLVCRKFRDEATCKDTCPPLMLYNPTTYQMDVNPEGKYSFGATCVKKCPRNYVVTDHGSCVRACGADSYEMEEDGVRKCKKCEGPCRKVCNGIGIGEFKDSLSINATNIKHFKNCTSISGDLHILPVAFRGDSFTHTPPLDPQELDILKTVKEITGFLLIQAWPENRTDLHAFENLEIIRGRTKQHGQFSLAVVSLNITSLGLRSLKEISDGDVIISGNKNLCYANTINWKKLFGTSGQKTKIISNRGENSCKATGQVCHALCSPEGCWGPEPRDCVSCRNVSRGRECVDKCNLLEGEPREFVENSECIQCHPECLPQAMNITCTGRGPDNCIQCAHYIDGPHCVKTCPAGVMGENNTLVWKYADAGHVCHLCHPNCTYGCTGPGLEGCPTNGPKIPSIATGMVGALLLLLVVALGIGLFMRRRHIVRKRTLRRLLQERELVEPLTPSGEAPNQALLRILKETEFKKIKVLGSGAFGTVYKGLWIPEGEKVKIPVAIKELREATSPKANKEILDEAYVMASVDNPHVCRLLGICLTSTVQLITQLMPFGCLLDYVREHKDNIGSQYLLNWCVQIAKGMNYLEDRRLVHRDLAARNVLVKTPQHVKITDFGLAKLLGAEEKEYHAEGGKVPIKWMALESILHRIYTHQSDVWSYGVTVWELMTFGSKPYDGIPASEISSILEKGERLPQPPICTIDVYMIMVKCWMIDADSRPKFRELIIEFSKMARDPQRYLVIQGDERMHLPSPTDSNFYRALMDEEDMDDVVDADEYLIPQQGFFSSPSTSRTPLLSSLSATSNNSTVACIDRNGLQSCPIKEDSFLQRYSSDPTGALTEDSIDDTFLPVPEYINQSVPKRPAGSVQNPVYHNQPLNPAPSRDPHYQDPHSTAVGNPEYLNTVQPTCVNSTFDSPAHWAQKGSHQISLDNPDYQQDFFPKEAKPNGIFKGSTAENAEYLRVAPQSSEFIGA
assay_protocol: EGFR signaling (pEGFR Tyr1068/total EGFR MSD) in A431 cells
Type: cell-based
Parameters: endogenous in cells; host or cells: A431, N87
condition: ratio A431 pEGFR EC50 to BT474 pHER2 EC50
measured_property: Selectivity A431 EC50/BT474 EC50

Some solved entries appear below for comparison.
>>> assay_value("Cc1ccc(Oc2ccc(Nc3ncnc4sc5c(c34)CCN(C(=O)/C=C/CN3CC4(C3)CS(=O)(=O)C4)C5)cc2C)cn1")
"D (D: ≥ 5 and < 10)"
>>> assay_value("Cc1ccc(Oc2ccc(Nc3ncnc4sc5c(c34)CCN(C(=O)/C=C/CN3CC(F)(CO)C3)C5)cc2C)cn1")
"B (B: ≥ 20 and < 100)"
>>> assay_value("Cc1cc(Nc2ncnc3sc4c(c23)CCN(C(=O)/C=C/CN(C)C)CC4)ccc1Oc1ccn2ccnc2c1")
"B (B: ≥ 20 and < 100)"
>>> assay_value("Cc1ccc(Oc2ccc(Nc3ncnc4sc5c(c34)CCN(C(=O)/C=C/CN3CCC[C@H](n4cccn4)C3)C5)cc2C)cn1")
"B (B: ≥ 20 and < 100)"
>>> assay_value("Cc1ccc(Oc2ccc(Nc3ncnc4sc5c(c34)C(C)CN(C(=O)/C=C/CN(C)C)C5)cc2Cl)cn1 (stereo not drawn)")
"A (A: ≥100)"

Task: Entry Cc1ccc(Oc2ccc(Nc3ncnc4sc5c(c34)CCN(C(=O)/C=C/CN[C@@H](C)CO)C5)cc2C)cn1 has what Selectivity A431 EC50/BT474 EC50?
Output: D (D: ≥ 5 and < 10)

Task: Entry Cc1cc(Nc2ncnc3sc4c(c23)CCN(C(=O)/C=C/CN(C)C)C4)ccc1Oc1ccc(N(C)C)nc1 has what Selectivity A431 EC50/BT474 EC50?
Output: B (B: ≥ 20 and < 100)

Task: Entry Cc1ccc(Oc2ccc(Nc3ncnc4sc5c(c34)CCN(C(=O)/C=C/CNC3COC3)C5)cc2C)cn1 has what Selectivity A431 EC50/BT474 EC50?
Output: C (C: ≥ 10 and < 20)

Task: Entry Cc1ncc(Oc2ccc(Nc3ncnc4sc5c(c34)CCN(C(=O)/C=C/CN(C)C)C5)cc2C)cn1 has what Selectivity A431 EC50/BT474 EC50?
Output: B (B: ≥ 20 and < 100)

Task: Entry Cc1ccc(Oc2ccc(Nc3ncnc4sc5c(c34)CCN(C(=O)/C=C/CN3CCC(O)C3)C5)cc2C)cn1 (stereo not drawn) has what Selectivity A431 EC50/BT474 EC50?
Output: D (D: ≥ 5 and < 10)

Task: Entry Cc1ccc(Oc2ccc(Nc3ncnc4sc5c(c34)CCN(C(=O)/C=C/CN3CCC[C@@H](CO)C3)C5)cc2C)cn1 has what Selectivity A431 EC50/BT474 EC50?
Output: C (C: ≥ 10 and < 20)

Task: Entry Cc1cc(Nc2ncnc3sc4c(c23)CCN(C(=O)/C=C/CN(C)C)C4)ccc1Oc1ccc2cn[nH]c2c1 has what Selectivity A431 EC50/BT474 EC50?
Output: D (D: ≥ 5 and < 10)

Task: Entry Cc1ccc(Oc2ccc(Nc3ncnc4sc5c(c34)CCN(C(=O)/C=C/CN3CC4CC4(CO)C3)C5)cc2C)cn1 (stereo not drawn) has what Selectivity A431 EC50/BT474 EC50?
Output: A (A: ≥100)

Task: Entry Cc1ccc(Oc2ccc(Nc3ncnc4sc5c(c34)CCN(C(=O)/C=C/CN3CCCCC3(C)CO)C5)cc2C)cn1 (stereo not drawn) has what Selectivity A431 EC50/BT474 EC50?
Output: B (B: ≥ 20 and < 100)

Task: Entry Cc1cc(Nc2ncnc3sc4c(c23)CCN(C(=O)/C=C/CN(C)C)C4)ccc1Oc1ccc2[nH]ncc2c1 has what Selectivity A431 EC50/BT474 EC50?
Output: D (D: ≥ 5 and < 10)

Task: Entry Cc1cc(Nc2ncnc3sc4c(c23)CCN(C(=O)/C=C/CN(C)C)C4)ccc1Oc1cccc(B(O)O)c1 has what Selectivity A431 EC50/BT474 EC50?
Output: C (C: ≥ 10 and < 20)

Task: Entry Cc1ccc(Oc2ccc(Nc3ncnc4sc5c(c34)CCN(C(=O)/C=C/CN(CCO)CCO)C5)cc2C)cn1 has what Selectivity A431 EC50/BT474 EC50?
Output: A (A: ≥100)

----------
experimental_target: EGFR (Homo sapiens, UniProt P00533)
assay_protocol: EGFR signaling (pEGFR Tyr1068/total EGFR MSD) in A431 cells
Assay type: cell-based
Parameters: endogenous in cells; host or cells: A431, N87
condition: ratio A431 pEGFR EC50 to HEK YVMA pHER2 EC50
measured_property: Selectivity A431 EC50/HEKYVMA EC50

>>> assay_value("COc1ccc(Oc2ccc(Nc3ncnc4sc5c(c34)CCN(C(=O)/C=C/CN3CC[C@H](CO)C3)C5)cc2C)cn1")
"C (C: ≥ 10 and < 20)"
>>> assay_value("O=C(/C=C/CN1CC2CCC(C2)C1)N1CCc2c(sc3ncnc(Nc4ccc(Oc5ccc6ncnn6c5)c(Cl)c4)c23)C1")
"C (C: ≥ 10 and < 20)"
>>> assay_value("Cc1ccc(Oc2ccc(Nc3ncnc4sc5c(c34)CCN(C(=O)/C=C/CN3CC[C@H](F)C3)C5)cc2C)cn1")
"C (C: ≥ 10 and < 20)"
>>> assay_value("Cc1cc(Nc2ncnc3sc4c(c23)CCN(C(=O)/C=C/CN2CC3CC(C3)C2)C4)ccc1Oc1ccc2ncnn2c1")
"C (C: ≥ 10 and < 20)"

Task: Entry COc1ccc(Oc2ccc(Nc3ncnc4sc5c(c34)C(C)CN(C(=O)/C=C/CN(C)C)C5)cc2C)cn1 (stereo not drawn) has what Selectivity A431 EC50/HEKYVMA EC50?
Output: C (C: ≥ 10 and < 20)

Task: Entry C=CC(=O)N1CCc2[nH]c3ncnc(Nc4ccc(Oc5ccc(C)nc5)c(C)c4)c3c2C1 has what Selectivity A431 EC50/HEKYVMA EC50?
Output: E (E: >1 and < 5)

Task: Entry Cc1ccc(Oc2ccc(Nc3ncnc4[nH]c5c(c34)CN(C(=O)/C=C/CN(C)C)CC5)cc2C)cn1 has what Selectivity A431 EC50/HEKYVMA EC50?
Output: E (E: >1 and < 5)

Task: Entry Cc1ccc(Oc2ccc(Nc3ncnc4sc5c(c34)CCN(C(=O)/C=C/CN3CCCC(c4nccs4)C3)C5)cc2C)cn1 (stereo not drawn) has what Selectivity A431 EC50/HEKYVMA EC50?
Output: C (C: ≥ 10 and < 20)

Task: Entry Cc1ccc(Oc2ccc(Nc3ncnc4sc5c(c34)C[C@@H](C)N(C(=O)/C=C/CN(C)C)[C@@H]5C)cc2C)cn1 (racemic) has what Selectivity A431 EC50/HEKYVMA EC50?
Output: D (D: ≥ 5 and < 10)

Task: Entry Cc1ccc(Oc2ccc(Nc3ncnc4sc5c(c34)CCN(C(=O)/C=C/CNC3CCC(C(=O)N(C)C)CC3)C5)cc2C)cn1 (stereo not drawn) has what Selectivity A431 EC50/HEKYVMA EC50?
Output: E (E: >1 and < 5)

Task: Entry Cc1cc(Nc2ncnc3sc4c(c23)CCN(C(=O)/C=C/CN2CC3CC2CO3)C4)ccc1Oc1ccc2ncnn2c1 (stereo not drawn) has what Selectivity A431 EC50/HEKYVMA EC50?
Output: D (D: ≥ 5 and < 10)

Task: Entry Cc1ccc(Oc2ccc(Nc3ncnc4sc5c(c34)CCN(C(=O)/C=C/CN(C)C)CC5)cc2C)cn1 has what Selectivity A431 EC50/HEKYVMA EC50?
Output: C (C: ≥ 10 and < 20)

----------
experimental_target: EGFR (Homo sapiens)
assay_protocol: EGFR signaling (pEGFR Tyr1068/total EGFR MSD) in A431 cells
Assay type: cell-based
Parameters: endogenous in cells; host or cells: A431, N87
condition: A431 cells; read-out: A431 pEGFR EC50
pEC50: −log10 of the molar value.
Exercise: state measured pEC50 for each of the compounds provided.

Task: Return pEC50 measured with EGFR (Homo sapiens) given this compound: Cc1ccc(Oc2ccc(Nc3ncnc4sc5c(c34)CCN(C(=O)/C=C/CN3CCN4C(=O)CCC4C3)C5)cc2C)cn1 (stereo not drawn)
Output: 5.00 to 6.00

Task: Return pEC50 measured with EGFR (Homo sapiens) given this compound: Cc1ccc(Oc2ccc(Nc3ncnc4sc5c(c34)CCN(C(=O)/C=C/CN3CC4C(CO)C4C3)C5)cc2C)cn1 (stereo not drawn)
Output: 6.00 to 7.00

Task: Return pEC50 measured with EGFR (Homo sapiens) given this compound: CN(C)C/C=C/C(=O)N1CCc2c(sc3ncnc(Nc4ccc(Oc5ccc6ncnn6c5)c(Cl)c4)c23)C1
Output: 6.00 to 7.00

Task: Return pEC50 measured with EGFR (Homo sapiens) given this compound: Cc1ccc(Oc2ccc(Nc3ncnc4sc5c(c34)CN(C(=O)/C=C/CN(C)C)C5C)cc2C)cn1 (stereo not drawn)
Output: 6.00 to 7.00

Task: Return pEC50 measured with EGFR (Homo sapiens) given this compound: Cc1ccc(Oc2ccc(Nc3ncnc4sc5c(c34)CCN(C(=O)/C=C/CN3CCOC(C)(C)C3)C5)cc2C)cn1
Output: > 7.00

Task: Return pEC50 measured with EGFR (Homo sapiens) given this compound: CC[C@H](NC/C=C/C(=O)N1CCc2c(sc3ncnc(Nc4ccc(Oc5ccc(C)nc5)c(C)c4)c23)C1)C(F)(F)F
Output: 6.00 to 7.00

Task: Return pEC50 measured with EGFR (Homo sapiens) given this compound: Cc1ccc(Oc2ccc(Nc3ncnc4sc5c(c34)C(C)N(C(=O)/C=C/CN(C)C)C5)cc2C)cn1 (stereo not drawn)
Output: 6.00 to 7.00

Task: Return pEC50 measured with EGFR (Homo sapiens) given this compound: CCN1CCN(C/C=C/C(=O)N2CCc3c(sc4ncnc(Nc5ccc(Oc6ccc(C)nc6)c(C)c5)c34)C2)CC1
Output: 5.00 to 6.00

Task: Return pEC50 measured with EGFR (Homo sapiens) given this compound: Cc1ccc(Oc2ccc(Nc3ncnc4sc5c(c34)C(C)CN(C(=O)/C=C/CN(C)C)C5)cc2C)cn1 (stereo not drawn)
Output: 6.00 to 7.00

Task: Return pEC50 measured with EGFR (Homo sapiens) given this compound: Cc1cc(Nc2ncnc3sc4c(c23)CCN(C(=O)/C=C/CN2CC(C)OC(C)C2C)C4)ccc1Oc1ccc2ncnn2c1 (stereo not drawn)
Output: 5.00 to 6.00

Task: Return pEC50 measured with EGFR (Homo sapiens) given this compound: Cc1ccc(Oc2ccc(Nc3ncnc4sc5c(c34)CCN(C(=O)/C=C/CNCc3cc(C)n[nH]3)C5)cc2C)cn1
Output: 6.00 to 7.00

Task: Return pEC50 measured with EGFR (Homo sapiens) given this compound: Cc1ccc(Oc2ccc(Nc3ncnc4sc5c(c34)CCN(C(=O)/C=C/CN3CC4CC4C3)C5)cc2C)cn1 (stereo not drawn)
Output: > 7.00

Task: Return pEC50 measured with EGFR (Homo sapiens) given this compound: Cc1cc(Nc2ncnc3sc4c(c23)CCN(C(=O)/C=C/CN(C)C)C4)ccc1Oc1ccn2ncnc2c1
Output: 6.00 to 7.00

Task: Return pEC50 measured with EGFR (Homo sapiens) given this compound: C=CC(=O)N1CCc2[nH]c3ncnc(Nc4ccc(Oc5ccc6ncnn6c5)c(C)c4)c3c2C1
Output: 5.00 to 6.00

Task: Return pEC50 measured with EGFR (Homo sapiens) given this compound: Cc1cc(Nc2ncnc3sc4c(c23)CCN(C(=O)/C=C/CN(C)C)C4)ccc1Oc1ccc2nccn2c1
Output: 6.00 to 7.00
